Listing of entries alongside the reported Activity.
Molecular target: Protein cereblon/Glycogen synthase kinase-3 beta (Homo sapiens, UniProt P49841+Q96SW2)
Sequence (P49841 whole entry, looked up): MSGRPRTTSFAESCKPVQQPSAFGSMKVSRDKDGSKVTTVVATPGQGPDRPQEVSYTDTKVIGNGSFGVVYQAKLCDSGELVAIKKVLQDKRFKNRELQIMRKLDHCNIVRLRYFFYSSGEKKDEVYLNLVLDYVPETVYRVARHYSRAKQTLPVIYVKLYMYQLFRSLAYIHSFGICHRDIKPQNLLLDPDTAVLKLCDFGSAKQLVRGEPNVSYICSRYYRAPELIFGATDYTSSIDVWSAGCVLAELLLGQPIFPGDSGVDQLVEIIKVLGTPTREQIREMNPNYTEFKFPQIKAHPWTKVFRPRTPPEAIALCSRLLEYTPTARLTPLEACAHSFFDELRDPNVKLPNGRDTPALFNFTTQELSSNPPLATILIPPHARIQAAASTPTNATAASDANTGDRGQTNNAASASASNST
Sequence (Q96SW2 whole entry, looked up): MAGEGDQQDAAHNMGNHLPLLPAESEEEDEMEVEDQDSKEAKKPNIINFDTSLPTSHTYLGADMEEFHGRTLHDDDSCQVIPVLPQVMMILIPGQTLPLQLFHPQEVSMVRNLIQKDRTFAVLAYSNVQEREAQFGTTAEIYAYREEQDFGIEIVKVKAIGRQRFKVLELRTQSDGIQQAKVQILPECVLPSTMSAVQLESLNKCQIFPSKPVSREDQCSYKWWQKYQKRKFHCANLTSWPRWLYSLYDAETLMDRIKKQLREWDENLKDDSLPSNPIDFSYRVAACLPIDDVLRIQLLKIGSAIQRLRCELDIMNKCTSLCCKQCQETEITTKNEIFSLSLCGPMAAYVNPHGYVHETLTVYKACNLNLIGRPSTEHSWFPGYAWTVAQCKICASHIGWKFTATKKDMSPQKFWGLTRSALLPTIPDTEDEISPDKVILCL
Experiment: Protac activity at CRBN/GSK3beta in human SH-SY5Y cells assessed as induction of GSK3beta degradation at 0.1 uM measured after 24 hrs
Type: cell-based
Just the number please, in %, no unit attached.

compound: Nc1ncc(-c2ccc(S(=O)(=O)N3CCN(CCCCc4cn(CCOCCOCCOCCOCCNc5cccc6c5C(=O)N(C5CCC(=O)NC5=O)C6=O)nn4)CC3)cc2)nc1C(=O)Nc1cccnc1 (stereo unspecified)
Activity, %: 63.7
//
compound: Nc1ncc(-c2ccc(S(=O)(=O)N3CCN(Cc4cn(CCOCCOCCOCCOCCOCCOCCNc5cccc6c5C(=O)N(C5CCC(=O)NC5=O)C6=O)nn4)CC3)cc2)nc1C(=O)Nc1cccnc1 (stereo unspecified)
Activity, %: 15.2

Kindly note the recorded Activity for Nc1ncc(-c2ccc(S(=O)(=O)N3CCN(CCc4cn(CCOCCOCCOCCOCCNc5cccc6c5C(=O)N(C5CCC(=O)NC5=O)C6=O)nn4)CC3)cc2)nc1C(=O)Nc1cccnc1 (stereo unspecified) , which is 55.9
